biological target: human TGFßRII (antigen of the Octet experiments) (human, UniProt P37173 23-166); assay: BLI (Octet)
Sequence (P37173 23-166): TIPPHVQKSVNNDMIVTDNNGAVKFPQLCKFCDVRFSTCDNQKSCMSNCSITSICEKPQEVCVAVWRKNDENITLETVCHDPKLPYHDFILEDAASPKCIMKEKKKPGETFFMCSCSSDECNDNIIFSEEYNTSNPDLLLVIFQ
Property Measured: Kd (nM)
Express the result in nM but write the number alone.

Memo: H1 L1.60 XENP34623 (antibody, V domains shown) VH: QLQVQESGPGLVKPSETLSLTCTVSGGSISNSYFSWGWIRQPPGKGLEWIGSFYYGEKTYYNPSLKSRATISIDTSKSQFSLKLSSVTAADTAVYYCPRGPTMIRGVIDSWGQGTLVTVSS VL: EIVLTQSPATLSLSPGERATLSCRASQSVRSYLAWYQQKPGQAPRLLIYDASNRATGIPARFSGSGSGTDFTLTISSLEPEDFAVYYCQQRSNWPPTFGPGTKVEIK , reported Kd: 0.888

Quick note, Kd for H1 L1.59 XENP34622 (antibody, V domains shown) VH: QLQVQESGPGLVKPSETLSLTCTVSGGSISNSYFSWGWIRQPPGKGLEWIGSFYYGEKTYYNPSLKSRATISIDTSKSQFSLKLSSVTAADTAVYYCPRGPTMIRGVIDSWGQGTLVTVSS VL: EIVLTQSPATLSLSPGERATLSCRASQSVRSYLAWYQQKPGQAPRLLIYDASNRATGIPARFSGSGSGTDFTLTISSLEPEDFAVYYCQQRSNWPPTFGGGTKVEIK landed at 0.311

Kd in this record for H1 L1.53 XENP34616 (antibody, V domains shown) VH: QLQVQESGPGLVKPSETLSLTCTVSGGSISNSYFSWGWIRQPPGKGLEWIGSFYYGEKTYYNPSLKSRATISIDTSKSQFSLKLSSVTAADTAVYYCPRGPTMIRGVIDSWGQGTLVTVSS VL: EIVLTQSPATLSLSPGERATLSCRASQSVRSYLAWYQQKPGQAPRLLIYDASNRATGIPARFSGSGSGTDFTLTISSLEPEDFAVYYCQQRSNYPPTFGQGTKVEIK : 0.596

// Kd lookup, binder = H1 L1.47 XENP34610 (antibody, V domains shown) VH: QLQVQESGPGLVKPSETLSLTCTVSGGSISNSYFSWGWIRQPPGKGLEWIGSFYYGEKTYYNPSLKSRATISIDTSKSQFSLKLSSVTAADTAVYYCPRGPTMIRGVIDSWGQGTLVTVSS VL: EIVLTQSPATLSLSPGERATLSCRASQSVRSYLAWYQQKPGQAPRLLIYDASNRATGIPARFSGSGSGTDFTLTISSLEPEDFAVYYCQQRSQWPPTFGQGTKVEIK , result: 0.296

Kd in this record for H1 L1.56 XENP34619 (antibody, V domains shown) VH: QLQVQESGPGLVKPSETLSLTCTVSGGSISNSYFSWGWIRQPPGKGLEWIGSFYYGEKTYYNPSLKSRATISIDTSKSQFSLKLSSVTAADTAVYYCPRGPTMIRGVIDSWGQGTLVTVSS VL: EIVLTQSPATLSLSPGERATLSCRASQSVRSYLAWYQQKPGQAPRLLIYDASNRATGIPARFSGSGSGTDFTLTISSLEPEDFAVYYCQQRSNWPLTFGQGTKVEIK : 0.001
